All figures here come from paper PMC6354023.

Assay: Pharmacokinetics of SAR405838 (whole-blood concentrations) in combination
Assay type: in vivo, human
Details: human, whole blood, oral, DL1 SAR405838 200 mg QD + pimasertib 45 mg BID; C2D1; read-out: SAR405838 tmax, median (range)

{"item smiles": "CC(C)(C)C[C@@H]1N[C@@H](C(=O)N[C@H]2CC[C@H](O)CC2)[C@H](c2cccc(Cl)c2F)[C@]12C(=O)Nc1cc(Cl)ccc12", "Tmax, h": 1.8}

----------
Test: Pharmacokinetics of SAR405838 (whole-blood concentrations) in combination
Type: in vivo, human
Settings: human, whole blood, oral, DL2b SAR405838 300 mg QD + pimasertib 45 mg BID; C1D2; read-out: SAR405838 Cmax, mean ± SD
measured property: Cmax (ng/mL)

{"item smiles": "CC(C)(C)C[C@@H]1N[C@@H](C(=O)N[C@H]2CC[C@H](O)CC2)[C@H](c2cccc(Cl)c2F)[C@]12C(=O)Nc1cc(Cl)ccc12", "recorded result": 1100}

----------
Assay: Pharmacokinetics of SAR405838 (whole-blood concentrations) in combination
Format: in vivo, human
Conditions: human, whole blood, oral, DL2a SAR405838 200 mg QD + pimasertib 60 mg QD; C1D2; read-out: SAR405838 Cmax, mean ± SD
measured property: Cmax (ng/mL)

{"compound": "CC(C)(C)C[C@@H]1N[C@@H](C(=O)N[C@H]2CC[C@H](O)CC2)[C@H](c2cccc(Cl)c2F)[C@]12C(=O)Nc1cc(Cl)ccc12 [SAR405838]", "measured property": "Cmax", "recorded result": 1500}

----------
Assay: Pharmacokinetics of pimasertib (plasma concentrations) in combination
Assay type: in vivo, human
Details: human, plasma, oral, DL2b SAR405838 300 mg QD + pimasertib 45 mg BID; C1D1; read-out: Pimasertib AUC0–12, mean ± SD
measured property: AUC(0-t) (ng·h/mL)

{"item smiles": "O=C(NC[C@H](O)CO)c1ccncc1Nc1ccc(I)cc1F", "unit symbol": "ng·h/mL", "recorded result": 779}

----------
Experiment: Pharmacokinetics of pimasertib (plasma concentrations) in combination
Assay type: in vivo, human
Conditions: human, plasma, oral, DL3a SAR405838 300 mg QD + pimasertib 60 mg QD; C1D1; read-out: Pimasertib tmax, median (range)

{"item smiles": "O=C(NC[C@H](O)CO)c1ccncc1Nc1ccc(I)cc1F", "unit symbol": "h", "Tmax": 1}

----------
Test: Pharmacokinetics of pimasertib (plasma concentrations) in combination
Assay type: in vivo, human
Details: human, plasma, oral, DL3a SAR405838 300 mg QD + pimasertib 60 mg QD; C2D1; read-out: Pimasertib Cmax, mean ± SD
Description: Blood samples were collected on Days 1 (for pimasertib only), 2, 3, 8 and 15 of Cycle 1, on Days 1 and 2 of Cycle 2, and on Day 1 of Cycles 3 and 4, to determine the whole-blood and plasma concentrations of SAR405838 and pimasertib, respectively.
measured property: Cmax (ng/mL)

{"item smiles": "O=C(NC[C@H](O)CO)c1ccncc1Nc1ccc(I)cc1F", "measured property": "Cmax", "unit symbol": "ng/mL", "recorded result": 243}

----------
Assay: Pharmacokinetics of SAR405838 (whole-blood concentrations) in combination
Format: in vivo, human
Conditions: human, whole blood, oral, DL2b SAR405838 300 mg QD + pimasertib 45 mg BID; C2D1; read-out: SAR405838 t1/2 (converted)

{"item smiles": "CC(C)(C)C[C@@H]1N[C@@H](C(=O)N[C@H]2CC[C@H](O)CC2)[C@H](c2cccc(Cl)c2F)[C@]12C(=O)Nc1cc(Cl)ccc12", "unit symbol": "h", "half-life": 13.4}
